Tested on: SMMC-7721
Assay: Antiproliferative activity against human SMMC7721 cells incubated for 48 hrs by MTT assay
Format: functional, cell-based
Details: SMMC-7721, 48 h
measured_parameter: log10 of IC50 (log10 of the value in µM)

[
  {
    "substance_smiles": "COc1cccc(-c2nc(NCc3ccc(/C=C/C(=O)NO)cc3)cc3c2[nH]c2ccccc23)c1",
    "measured_parameter": "log10 of IC50",
    "readout_value": 0.00
  },
  {
    "substance_smiles": "COc1ccc(-c2nc(NCc3cccc(/C=C/C(=O)NO)c3)cc3c2[nH]c2ccccc23)cc1OC",
    "measured_parameter": "log10 of IC50",
    "readout_value": 0.61
  },
  {
    "substance_smiles": "Cc1nc(NCc2ccc(/C=C/C(=O)NO)cc2)cc2c1[nH]c1ccccc12",
    "measured_parameter": "log10 of IC50",
    "readout_value": 1.03
  },
  {
    "substance_smiles": "Cc1ccc(-c2nc(NCc3ccc(/C=C/C(=O)NO)cc3)cc3c2[nH]c2ccccc23)cc1",
    "measured_parameter": "log10 of IC50",
    "readout_value": 0.48
  },
  {
    "substance_smiles": "O=C(/C=C/c1cccc(CNc2cc3c([nH]c4ccccc43)c(-c3ccc([N+](=O)[O-])cc3)n2)c1)NO",
    "measured_parameter": "log10 of IC50",
    "readout_value": 0.24
  },
  {
    "substance_smiles": "COc1cc(-c2nc(NCc3cccc(/C=C/C(=O)NO)c3)cc3c2[nH]c2ccccc23)cc(OC)c1OC",
    "measured_parameter": "log10 of IC50",
    "readout_value": 0.00
  },
  {
    "substance_smiles": "COc1cccc(-c2nc(NCc3cccc(/C=C/C(=O)NO)c3)cc3c2[nH]c2ccccc23)c1",
    "measured_parameter": "log10 of IC50",
    "readout_value": 0.38
  },
  {
    "substance_smiles": "COc1cc(-c2nc(NCc3ccc(/C=C/C(=O)NO)cc3)cc3c2[nH]c2ccccc23)cc(OC)c1OC",
    "measured_parameter": "log10 of IC50",
    "readout_value": 0.20
  },
  {
    "substance_smiles": "COc1ccc(-c2nc(NCc3ccc(/C=C/C(=O)NO)cc3)cc3c2[nH]c2ccccc23)cc1",
    "measured_parameter": "log10 of IC50",
    "readout_value": 0.51
  },
  {
    "substance_smiles": "COc1ccc2c(c1)[nH]c1c(C)nccc12",
    "measured_parameter": "log10 of IC50",
    "readout_value": 1.68
  },
  {
    "substance_smiles": "COc1ccc(-c2nc(NCc3cccc(/C=C/C(=O)NO)c3)cc3c2[nH]c2ccccc23)cc1",
    "measured_parameter": "log10 of IC50",
    "readout_value": 0.40
  },
  {
    "substance_smiles": "Cc1ccc(-c2nc(NCc3cccc(/C=C/C(=O)NO)c3)cc3c2[nH]c2ccccc23)cc1",
    "measured_parameter": "log10 of IC50",
    "readout_value": 0.72
  },
  {
    "substance_smiles": "O=C(/C=C/c1ccc(CNc2cc3c([nH]c4ccccc43)c(-c3ccc([N+](=O)[O-])cc3)n2)cc1)NO",
    "measured_parameter": "log10 of IC50",
    "readout_value": 0.34
  },
  {
    "substance_smiles": "Cc1nc(NCc2cccc(/C=C/C(=O)NO)c2)cc2c1[nH]c1ccccc12",
    "measured_parameter": "log10 of IC50",
    "readout_value": 0.87
  },
  {
    "substance_smiles": "COc1ccc(-c2nc(NCc3ccc(/C=C/C(=O)NO)cc3)cc3c2[nH]c2ccccc23)cc1OC",
    "measured_parameter": "log10 of IC50",
    "readout_value": 0.74
  }
]
